- method_summary: qHTS assay for identifying genotoxic compounds that show differential cytotoxicity against isogenic chicken DT40 cell lines with known DNA damage response pathways - Rev3 mutant cell line (AID 743014); also: nearly all actives have a fitted effect of over 55% in size
- test_context: chicken DT40 Rev3-/- viability, CellTiter-Glo, 40 h; series mostly up to 68.4 µM
Records with an inconclusive call do not appear. The source made the active and inactive calls. Calls follow the shape of the dose curve; as a rule, active = well fitted cell-killing curve with a large enough effect in the repeat runs; inconclusive = weak or mixed curves, or effect the other way; inactive = no such curve, though single readings can be large or run the other way.
Please state which outcome applies, choosing from active, inactive

Some solved cases for reference:
molecule: CC(=O)N(CC(C)C(=O)O)c1c(I)cc(I)c(N)c1I (configuration not stated)
label: inactive
--
molecule: CCCCCCCN(CC)CCCC(O)c1ccc(NS(C)(=O)=O)cc1 (configuration not stated)
label: active
--
molecule: CC(C)[C@H](N)C(=O)OCC(CO)OCn1cnc2c(=O)[nH]c(N)nc21 (some centres not stated)
label: inactive
--
molecule: OCC(O)COc1ccc(Cl)cc1 (configuration not stated)
label: inactive
--
molecule: CC1CS(=O)(=O)CCN1/N=C/c1ccc([N+](=O)[O-])o1 (configuration not stated)
label: inactive

What was the test verdict on "CN1CCN(C2=Nc3ccccc3Cc3ccccc32)CC1" ?
active

What was the test verdict on CCN1C(=O)NC(c2ccccc2)C1=O (configuration not stated) ?
inactive
